- Target Of Assay: LRRK2 wild type enzyme (Homo sapiens)
- Sequence (Q5S007 whole entry): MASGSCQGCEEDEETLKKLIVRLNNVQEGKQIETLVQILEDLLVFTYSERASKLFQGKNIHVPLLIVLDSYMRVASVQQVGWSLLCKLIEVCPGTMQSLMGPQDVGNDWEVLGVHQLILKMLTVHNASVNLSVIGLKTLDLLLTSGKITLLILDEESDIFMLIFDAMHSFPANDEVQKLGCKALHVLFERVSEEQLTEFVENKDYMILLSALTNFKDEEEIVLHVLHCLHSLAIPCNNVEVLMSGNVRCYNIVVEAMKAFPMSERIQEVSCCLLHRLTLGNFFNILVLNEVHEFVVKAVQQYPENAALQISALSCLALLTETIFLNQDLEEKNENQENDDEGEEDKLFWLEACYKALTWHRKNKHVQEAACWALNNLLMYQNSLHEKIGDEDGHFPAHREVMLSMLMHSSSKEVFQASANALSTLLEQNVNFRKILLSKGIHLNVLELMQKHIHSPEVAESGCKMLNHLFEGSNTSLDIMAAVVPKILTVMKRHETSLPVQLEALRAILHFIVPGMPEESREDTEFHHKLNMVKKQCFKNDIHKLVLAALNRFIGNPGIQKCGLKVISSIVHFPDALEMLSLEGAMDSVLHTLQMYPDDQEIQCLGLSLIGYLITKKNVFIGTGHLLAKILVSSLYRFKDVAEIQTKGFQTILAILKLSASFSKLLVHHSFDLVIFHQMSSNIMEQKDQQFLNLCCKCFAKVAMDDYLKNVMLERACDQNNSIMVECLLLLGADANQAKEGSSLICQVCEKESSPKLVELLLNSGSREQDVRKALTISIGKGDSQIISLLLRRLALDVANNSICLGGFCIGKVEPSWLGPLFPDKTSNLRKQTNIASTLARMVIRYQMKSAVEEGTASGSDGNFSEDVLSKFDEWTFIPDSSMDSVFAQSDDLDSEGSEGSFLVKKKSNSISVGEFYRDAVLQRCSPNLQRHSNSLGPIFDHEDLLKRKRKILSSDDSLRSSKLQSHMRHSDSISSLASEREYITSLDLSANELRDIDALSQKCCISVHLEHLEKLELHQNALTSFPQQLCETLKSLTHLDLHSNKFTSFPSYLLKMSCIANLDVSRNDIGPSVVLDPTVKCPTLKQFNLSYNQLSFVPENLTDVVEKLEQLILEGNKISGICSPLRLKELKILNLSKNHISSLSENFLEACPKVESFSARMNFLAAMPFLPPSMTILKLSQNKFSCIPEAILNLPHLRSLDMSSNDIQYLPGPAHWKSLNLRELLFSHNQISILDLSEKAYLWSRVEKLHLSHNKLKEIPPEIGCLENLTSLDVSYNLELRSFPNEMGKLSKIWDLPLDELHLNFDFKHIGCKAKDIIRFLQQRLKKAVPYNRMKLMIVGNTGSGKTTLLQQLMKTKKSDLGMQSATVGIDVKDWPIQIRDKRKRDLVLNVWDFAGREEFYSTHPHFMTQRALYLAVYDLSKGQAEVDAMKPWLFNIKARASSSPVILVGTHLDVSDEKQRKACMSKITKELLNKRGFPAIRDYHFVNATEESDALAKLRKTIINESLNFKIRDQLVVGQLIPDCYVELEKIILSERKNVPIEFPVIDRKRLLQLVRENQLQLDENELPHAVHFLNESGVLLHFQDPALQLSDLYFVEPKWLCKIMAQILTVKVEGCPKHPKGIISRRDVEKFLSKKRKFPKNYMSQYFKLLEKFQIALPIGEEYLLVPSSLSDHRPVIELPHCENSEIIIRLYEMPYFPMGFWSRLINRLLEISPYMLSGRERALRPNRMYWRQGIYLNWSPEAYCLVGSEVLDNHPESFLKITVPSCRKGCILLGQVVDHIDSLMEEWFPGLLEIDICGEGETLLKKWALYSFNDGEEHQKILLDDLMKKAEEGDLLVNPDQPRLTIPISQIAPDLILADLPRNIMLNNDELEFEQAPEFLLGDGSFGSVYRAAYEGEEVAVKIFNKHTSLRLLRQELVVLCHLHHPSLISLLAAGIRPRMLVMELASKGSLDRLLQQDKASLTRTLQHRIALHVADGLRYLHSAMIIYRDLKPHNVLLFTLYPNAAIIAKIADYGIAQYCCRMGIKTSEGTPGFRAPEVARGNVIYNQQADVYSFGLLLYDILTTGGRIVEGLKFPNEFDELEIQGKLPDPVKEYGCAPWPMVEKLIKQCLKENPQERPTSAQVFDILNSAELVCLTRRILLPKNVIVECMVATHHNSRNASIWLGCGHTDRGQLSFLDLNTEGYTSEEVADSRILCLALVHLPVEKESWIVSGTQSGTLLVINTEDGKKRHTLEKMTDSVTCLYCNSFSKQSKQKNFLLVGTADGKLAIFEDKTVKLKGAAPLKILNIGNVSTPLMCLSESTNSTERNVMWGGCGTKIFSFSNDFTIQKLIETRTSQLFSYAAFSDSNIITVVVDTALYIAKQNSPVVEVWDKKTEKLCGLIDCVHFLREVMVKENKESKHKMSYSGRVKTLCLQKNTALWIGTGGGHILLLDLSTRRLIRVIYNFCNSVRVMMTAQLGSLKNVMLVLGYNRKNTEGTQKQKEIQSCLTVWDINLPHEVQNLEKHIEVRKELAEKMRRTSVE
pIC50: −log10 of the molar value.
Answer label 0 if pIC50 is under 9, and label 1 if it is 9 or more.

>>> print(df.to_string())
                                   molecule    class
0  C[C@@H]1C[C@H](n2c(C3CCN(S(C)(=O)=O)CC3)nc3cnc4ccc(C#N)cc4c32)CCO1  label 0
1  C[C@@H]1C[C@H](n2c(CC(=O)Nc3ccon3)nc3cnc4ccc(C#N)cc4c32)CCO1  label 1
2  COc1ccnc(C)c1NC(=O)Cc1nc2cnc3ccc(C#N)cc3c2n1[C@@H]1CCO[C@H](C)C1  label 1

Input line: // inclusive: pIC50 at least 9? input: "Cc1ncc(NC(=O)Cc2nc3cnc4ccc(C#N)cc4c3n2[C@@H]2CCO[C@H](C)C2)cn1"
Output line: label 1

Input line: // inclusive: pIC50 at least 9? input: "C[C@@H]1C[C@H](n2c(CC(=O)NCc3cnccn3)nc3cnc4ccc(Cl)cc4c32)CCO1"
Output line: label 1

Input line: // inclusive: pIC50 at least 9? input: C[C@@H]1C[C@H](n2c(C3CC(=O)N([C@@H]4CCOC4)C3)nc3cnc4ccc(C#N)cc4c32)CCO1 (some centres unmarked)
Output line: label 0

Input line: // inclusive: pIC50 at least 9? input: "Cc1cnn(C)c1NC(=O)Cc1nc2cnc3ccc(C#N)cc3c2n1[C@@H]1CCO[C@H](C)C1"
Output line: label 1

Input line: // inclusive: pIC50 at least 9? input: "C[C@@H]1C[C@H](n2c(CC(=O)Nc3ncc(C4CC4)cn3)nc3cnc4ccc(C#N)cc4c32)CCO1"
Output line: label 1

// data source = patent US20250270209A1
